test system: D425 cells; assay: Cell viability assay (suspension cell line), MTT/CellTiter Blue, D425; format: cell-based, human; conditions: ratio of LD50 HUVEC to LD50 D425
Answer No if HUVEC/D425 LD50 Fold Change is under 1, and Yes if it is 1 or more.

Check out these entries, answers already filled in.
Form field: HUVEC/D425 LD50 Fold Change at least 1? Entry: CC(c1ccccc1)N1C2CCC(C2)C1CNS(=O)(=O)c1ccc(C(F)(F)F)cc1 (stereo not drawn) [Compound 10f]
Yes

Form field: HUVEC/D425 LD50 Fold Change at least 1? Entry: COc1ccc(-c2ccc(S(=O)(=O)NC3CN(C(C)c4ccccc4)C4CCC3C4)cc2)cc1 (stereo not drawn) [Compound 11e]
Yes

Form field: HUVEC/D425 LD50 Fold Change at least 1? Entry: Cc1ccc(-c2ccc(S(=O)(=O)NCC3C4CCC(C4)N3C(C)c3ccccc3)cc2)cc1 (stereo not drawn) [Compound 10b]
Yes

Form field: HUVEC/D425 LD50 Fold Change at least 1? Entry: CC(c1ccccc1)N1C2CCC(C2)C1CNS(=O)(=O)c1ccc(-c2ccc(F)cc2)cc1 (stereo not drawn) [Compound 10c]
Yes

Form field: HUVEC/D425 LD50 Fold Change at least 1? Entry: CC(c1ccccc1)N1C2CCC(C2)C1CNS(=O)(=O)c1cc(C(F)(F)F)cc(C(F)(F)F)c1 (stereo not drawn) [Compound 10g]
Yes

Form field: HUVEC/D425 LD50 Fold Change at least 1? Entry: COc1ccc(-c2ccc(S(=O)(=O)NCC3C4CCC(C4)N3C(C)c3ccccc3)cc2)cc1 (stereo not drawn) [Compound 10e]
Yes

New cases:
Form field: HUVEC/D425 LD50 Fold Change at least 1? Entry: CC(c1ccccc1)N1CC(NS(=O)(=O)c2cc(C(F)(F)F)cc(C(F)(F)F)c2)C2CCC1C2 (stereo not drawn) [Compound 11g]
Yes

Form field: HUVEC/D425 LD50 Fold Change at least 1? Entry: CC(c1ccccc1)N1C2CCC(C2)C1CN(CC1C2CCC(C2)N1C(C)c1ccccc1)S(=O)(=O)c1ccc(-c2ccccc2)cc1 (stereo not drawn) [Compound 13a]
No

Form field: HUVEC/D425 LD50 Fold Change at least 1? Entry: CC(=O)Nc1ccc(S(=O)(=O)N(CCN(CC2C3CCC(C3)N2C(C)c2ccccc2)S(=O)(=O)c2ccc(NC(C)=O)cc2)CC2C3CCC(C3)N2C(C)c2ccccc2)cc1 (stereo not drawn) [Compound 12i]
No

Form field: HUVEC/D425 LD50 Fold Change at least 1? Entry: CC(c1ccccc1)N1C2CCC(C2)C1CNS(=O)(=O)c1ccc(-c2ccccc2)cc1 (stereo not drawn) [Compound 10a]
Yes

====

system: HUVEC cells; experiment: Cell viability assay MTT/CellTiter Blue, HUVEC (Table 2); type: cell-based; settings: Table 2, nonmalignant primary cells, 24 h, assay as for D425
Label Condition met when LD50 HUVEC < 20 µM; otherwise Condition not met.

Check out these entries, answers already filled in.
Please let me know if COc1ccc(-c2ccc(S(=O)(=O)NCC3C4CCC(C4)N3C(C)c3ccccc3)cc2)cc1 (centres unmarked) [Compound 10e] shows LD50 HUVEC below 20 µM.
Condition met

Please let me know if CC(=O)Nc1ccc(S(=O)(=O)N(CCN(CC2C3CCC(C3)N2C(C)c2ccccc2)S(=O)(=O)c2ccc(NC(C)=O)cc2)CC2C3CCC(C3)N2C(C)c2ccccc2)cc1 (centres unmarked) [Compound 12i] shows LD50 HUVEC below 20 µM.
Condition met

Please let me know if COc1ccc(-c2ccc(S(=O)(=O)NC3CN(C(C)c4ccccc4)C4CCC3C4)cc2)cc1 (centres unmarked) [Compound 11e] shows LD50 HUVEC below 20 µM.
Condition not met

Please let me know if CC(c1ccccc1)N1C2CCC(C2)C1CNS(=O)(=O)c1ccc(C(F)(F)F)cc1 (centres unmarked) [Compound 10f] shows LD50 HUVEC below 20 µM.
Condition not met

New cases:
Please let me know if CC(c1ccccc1)N1CC(NS(=O)(=O)c2cc(C(F)(F)F)cc(C(F)(F)F)c2)C2CCC1C2 (centres unmarked) [Compound 11g] shows LD50 HUVEC below 20 µM.
Condition met
